run.description: Caco-2 permeability assay (CacoReady kit)
Type: in vitro ADME
conditions.used: human, Caco-2, Caco-2 barrier, CacoReady kit; above 1×10^−6 cm/s classified as permeable
property.label: Papp

Below: 3 molecules and their reported Papp.
CNC(=O)C(=O)CC[C@H](NC(=O)c1nc(Br)sc1Br)C(=O)Nc1cccn(CC(=O)NC2C3CC4CC(C3)CC2C4)c1=O (stereo partly drawn) [II-33] :: > 10 ×10⁻⁶ cm/s
CNC(=O)C(=O)CC[C@H](NC(=O)c1cc(Br)c(Cl)s1)C(=O)Nc1cccn(CC(=O)NC2C3CC4CC(C3)CC2C4)c1=O (stereo partly drawn) [II-44] :: 1 to 10 ×10⁻⁶ cm/s
CNC(=O)C(=O)CC[C@H](NC(=O)c1nc(C2(C)CC2)no1)C(=O)Nc1cccn(CC(=O)NC2C3CC4CC2CC(C(N)=O)(C4)C3)c1=O (stereo partly drawn) [II-196] :: < 1 ×10⁻⁶ cm/s

Task: Return value of Papp for input CNC(=O)C(=O)CC[C@H](NC(=O)c1cnnn1C)C(=O)Nc1cccn(CC(=O)N[C@@H]2C[C@H]3CC[C@@H]2C3)c1=O [II-130] , no commentary.
Output: < 1 ×10⁻⁶ cm/s

Task: Return value of Papp for input CNC(=O)C(=O)CC[C@H](NC(=O)c1oc2ccccc2c1C)C(=O)Nc1cccn(CC23CC4CC(CC(O)(C4)C2)C3)c1=O [II-108] , no commentary.
Output: < 1 ×10⁻⁶ cm/s

Task: Return value of Papp for input CNC(=O)C(=O)CC[C@H](NC(=O)c1oc2ccccc2c1C)C(=O)Nc1cccn(CC(=O)N(C)C2C3CC4CC(C3)CC2C4)c1=O (stereo partly drawn) [II-67] , no commentary.
Output: 1 to 10 ×10⁻⁶ cm/s

* * *

test.system: recombinant human transglutaminase 2 (Homo sapiens, UniProt P21980)
Construct: purchased Zedira T022
Sequence (P21980 whole entry): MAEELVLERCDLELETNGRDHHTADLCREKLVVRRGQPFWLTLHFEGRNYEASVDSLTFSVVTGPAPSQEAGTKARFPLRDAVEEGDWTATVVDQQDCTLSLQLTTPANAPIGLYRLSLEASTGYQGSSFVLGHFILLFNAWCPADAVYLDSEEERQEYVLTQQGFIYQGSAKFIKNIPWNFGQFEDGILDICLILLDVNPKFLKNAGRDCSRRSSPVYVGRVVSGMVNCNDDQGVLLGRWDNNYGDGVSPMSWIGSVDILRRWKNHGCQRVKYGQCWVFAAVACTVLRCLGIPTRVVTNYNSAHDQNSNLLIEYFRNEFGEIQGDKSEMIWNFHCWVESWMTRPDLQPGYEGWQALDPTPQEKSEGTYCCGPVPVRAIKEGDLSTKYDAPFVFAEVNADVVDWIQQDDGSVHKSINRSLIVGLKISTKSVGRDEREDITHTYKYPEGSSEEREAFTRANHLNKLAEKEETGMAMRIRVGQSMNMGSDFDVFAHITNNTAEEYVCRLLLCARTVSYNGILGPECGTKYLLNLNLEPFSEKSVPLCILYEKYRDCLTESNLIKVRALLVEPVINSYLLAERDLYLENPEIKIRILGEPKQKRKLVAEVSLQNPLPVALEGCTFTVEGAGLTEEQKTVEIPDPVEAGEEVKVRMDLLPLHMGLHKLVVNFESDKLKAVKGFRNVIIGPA
run.description: Transglutaminase assay (DCC-assay): incorporation of dansylcadaverine into dimethylcasein
Format: biochemical
conditions.used: recombinant human TG2 10 nM; dansylcadaverine incorporation into dimethylcasein; read-out: IC50 TG2
property.label: IC50

Below: 4 compounds and their reported IC50.
CNC(=O)C(=O)CC[C@H](NC(=O)[C@@H]1CCCNC1)C(=O)Nc1cccn(CC(=O)NC2C3CC4CC(C3)CC2C4)c1=O (some centres unmarked) [II-59] :: 0.04 to 0.4 µM
CNC(=O)C(=O)CC[C@H](NC(=O)c1cc2c(F)c(F)ccc2[nH]1)C(=O)Nc1cccn(CC(=O)NC2C3CC4CC(C3)CC2C4)c1=O (some centres unmarked) [II-10] :: < 0.04 µM
Cn1nncc1C(=O)N[C@@H](CCC(=O)C(N)=O)C(=O)Nc1cccn(CC(=O)NC2C3CC4CC(C3)CC2C4)c1=O (some centres unmarked) [II-127] :: 0.04 to 0.4 µM
CNC(=O)C(=O)CC[C@H](NC(=O)c1cnnn1C)C(=O)Nc1cccn(CC(=O)N[C@@H]2C[C@H]3CC[C@@H]2C3)c1=O [II-130] :: 0.04 to 0.4 µM

Task: Return value of IC50 for input CNC(=O)C(=O)CC[C@H](NC(=O)c1cc2ccccc2o1)C(=O)Nc1cccn(CC(=O)NC2C3CCCC2CC3)c1=O (some centres unmarked) [II-171] , no commentary.
Output: < 0.04 µM

Task: Return value of IC50 for input CNC(=O)C(=O)CC[C@H](NC(=O)c1ccnn1C)C(=O)Nc1cccn(CC(=O)N[C@@H]2C[C@@H]3CC[C@H]2C3)c1=O [II-158] , no commentary.
Output: 0.04 to 0.4 µM

Task: Return value of IC50 for input CNC(=O)C(=O)CC[C@H](NC(=O)c1snnc1C)C(=O)Nc1cccn(CC(=O)N[C@@H]2C[C@H]3CC[C@@H]2C3)c1=O [II-152] , no commentary.
Output: 0.04 to 0.4 µM

This collection of values is drawn from patent US20240383856A1.
